Assay: Selectivity index, ratio of CC50 for Macaca mulatta hepatocytes to IC50 for antiplasmodial activity against schizont Plasmodium cynomolgi B strain infected in Macaca mulatta hepatocytes incubated with sporozoite containing salivary gland homogenate obtained from dissected Anopheles dirus mosquitoes (infected with Plasmodium cynomolgi B strain) treatment started on day 4 post infection and continued daily for 4 days into fresh changed media until day 8 assessed as Liver stage (LS) activity by measuring radical cure mode by immunofluorescent staining analysis
Format: toxicity, cell-based
Conditions: rhesus monkey, read-out: Selectivity Index
selectivity ratio at 96 h by entry:
// no unit string in output, number only

Consider the worked cases shown below.
| Molecule | selectivity ratio at 96 h |
| --- | --- |
| COc1cc(C)c2c(Oc3cccc(C(F)(F)F)c3)c(OC)cc(NC(C)CCCN)c2n1 (stereo not drawn) | 2.79 |
| O=c1c2c([nH]c3cccc(Oc4ccc(OC(F)(F)F)cc4)c13)CCCC2 | 2.05 |
| O=c1c2ccc(OCc3cccc(OC(F)(F)F)c3)cc2[nH]c2cc(F)cc(Cl)c12 | 1.68 |

Request: Query (molecule): O=c1c2cc(F)c(Oc3ccc(OC(F)(F)F)cc3)cc2[nH]c2cc(Cl)cc(F)c12 ; field requested: selectivity ratio at 96 h
Response: 1.71

Request: Bench note: what selectivity ratio at 96 h did O=c1c2c([nH]c3cc(Oc4cccc(OC(F)(F)F)c4)ccc13)CCCC2 show?
Response: 1.47

---

Assay: Selectivity index, ratio of CC50 for Macaca mulatta hepatocytes to IC50 for antiplasmodial activity against hypnozoite Plasmodium cynomolgi B strain infected in Macaca mulatta hepatocytes incubated with sporozoite containing salivary gland homogenate obtained from dissected Anopheles dirus mosquitoes (infected with Plasmodium cynomolgi B strain) treatment started on day 4 post infection and continued daily for 4 days into fresh changed media until day 8 assessed as Liver stage (LS) activity by measuring prophylactic mode by immunofluorescent staining analysis
Format: toxicity, cell-based
Details: rhesus monkey, read-out: Selectivity Index
Recorded endpoint: selectivity ratio at 96 h

Study these solved cases before continuing.
| Molecule | Recorded endpoint | Experimental result |
| --- | --- | --- |
| O=c1c2c([nH]c3ccc(F)c(Oc4ccc(OC(F)(F)F)cc4)c13)CCCC2 | selectivity ratio at 96 h | > 2.73 |
| CC(C)(C)OC(=O)N1CCC(Oc2ccc3c(=O)c4c(F)cc(Cl)cc4[nH]c3c2)C1 (stereo not given) | selectivity ratio at 96 h | 18.4 |
| O=c1c2c([nH]c3c(Oc4ccc(OC(F)(F)F)cc4)cccc13)CCCC2 | selectivity ratio at 96 h | > 1.53 |
| CO[C@@H]1[C@@H](OC)[C@H](C)[C@@](O)(CC(=O)O)O[C@H]1[C@H](C)[C@H]1O[C@@]2(CC[C@@](C)([C@H]3CC[C@@](C)([C@@H]4O[C@@H]([C@H]5O[C@](C)(O)[C@H](C)C[C@@H]5C)C[C@@H]4O[C@@H]4C[C@H](OC)[C@@H](OC)[C@H](C)O4)O3)O2)C[C@H](O)[C@H]1C | selectivity ratio at 96 h | 236 |

Request: # input molecule: O=c1c2ccc(Oc3ccc(OC(F)(F)F)cc3)cc2[nH]c2ccc(F)c(Cl)c12 ; wanted: its selectivity ratio at 96 h
Response: 16.7

---

Experiment: Cmax in male ICR-CD1 mouse liver at 40 mg/kg, po
Type: ADME, organism-based
Recorded endpoint: Cmax
Write the figure, then the unit, nothing else.

| Molecule smiles | Cmax |
| --- | --- |
| O=c1c2c([nH]c3cc(Oc4ccc(OC(F)(F)F)cc4)c(F)cc13)CCCC2 | 654 ng/mL |

Now consider a different compound.
Request: # lookup: Cmax of O=c1c2c([nH]c3cc(Oc4ccc(OC(F)(F)F)cc4)ccc13)CCCC2
Response: 6080 ng/mL

Measured values drawn from ChEMBL document CHEMBL6134844 for this set.
